assay: Phase 2A study (Magnolia) in women with postpartum depression: ganaxolone plasma concentrations / pharmacokinetics; conditions: female, human, plasma, intravenous, 170 μg/kg/hr, Mean average GNX Concentration, calculated for dose 170 μg/kg/hr; time 48 hr
quantity: concentration at 48 hr (ng/mL)
Numbers only, in ng/mL.

Any idea what its concentration at 48 hr is? The compound is CC(=O)[C@H]1CC[C@H]2[C@@H]3CC[C@H]4C[C@](C)(O)CC[C@]4(C)[C@H]3CC[C@]12C [ganaxolone, 3α-hydroxy-3β-methyl-5α-pregnan-20-one]
199

====

Assay: Phase 2A study (Magnolia) in women with postpartum depression: ganaxolone plasma concentrations / pharmacokinetics
Details: female, human, plasma, intravenous, 150 μg/kg/hr, Mean average GNX Concentration, calculated for dose 150 μg/kg/hr; time 12 hr
Description: Approximately 200 women with PPD 18 to 45 years of age are screened to randomize up to 100 subjects across up to 6 cohorts. Approximately 10-30 subjects are randomized into each cohort. Randomized subjects receive the investigational product (IP), ganaxolone or matching placebo in a 1:1 ratio. In Cohorts 1-5 the IP is administered intravenously over 60 hours. In Cohort 6 the dosing is initiated with a 6-hour intravenous (IV) infusion followed by oral dosing for 28 days plus 3-day taper. […]
quantity: concentration at 12 h (ng/mL)
Give bare numbers, in ng/mL.

Item CC(=O)[C@H]1CC[C@H]2[C@@H]3CC[C@H]4C[C@](C)(O)CC[C@]4(C)[C@H]3CC[C@]12C [ganaxolone, 3α-hydroxy-3β-methyl-5α-pregnan-20-one] has what recorded concentration at 12 h?
142

====

assay: Cardiovascular safety pharmacology in dogs, single dose; format: in vivo, dog; settings: dog, in vivo; single dose of up to 15 mg/kg; read-out: AUC(0-24)
quantity: AUC(0-t) (µg·h/mL)
Answers are plain numbers, in µg·h/mL.

Find the recorded AUC(0-t) belonging to CC(=O)[C@H]1CC[C@H]2[C@@H]3CC[C@H]4C[C@](C)(O)CC[C@]4(C)[C@H]3CC[C@]12C [ganaxolone, 3α-hydroxy-3β-methyl-5α-pregnan-20-one] and report it.
10

====

test: IV toxicity in rats, 14 days; conditions: male, rat, in vivo, iv
quantity: NOAEL at 14 days (mg/kg/day)
Numbers only, in mg/kg/day.

Need NOAEL at 14 days of CC(=O)[C@H]1CC[C@H]2[C@@H]3CC[C@H]4C[C@](C)(O)CC[C@]4(C)[C@H]3CC[C@]12C [ganaxolone, 3α-hydroxy-3β-methyl-5α-pregnan-20-one] , thanks.
42

====

test: Phase 1 study of IV ganaxolone in healthy volunteers (safety, pharmacokinetics, sedation); assay type: in vivo, human; details: human, in vivo, intravenous; bolus infusion of 30 mg over 5-minutes; read-out: Peak concentration levels (Cmax)
quantity: Cmax

Query: Cmax; subject: CC(=O)[C@H]1CC[C@H]2[C@@H]3CC[C@H]4C[C@](C)(O)CC[C@]4(C)[C@H]3CC[C@]12C [ganaxolone, 3α-hydroxy-3β-methyl-5α-pregnan-20-one]
> 1000 ng/mL

====

assay: Phase 2A study (Magnolia) in women with postpartum depression: ganaxolone plasma concentrations / pharmacokinetics; conditions: female, human, plasma, intravenous, 210 μg/kg/hr, Mean average GNX Concentration, calculated for dose 210 μg/kg/hr; time 12 hr
quantity: concentration at 12 h (ng/mL)
Give bare numbers, in ng/mL.

Recorded concentration at 12 h of CC(=O)[C@H]1CC[C@H]2[C@@H]3CC[C@H]4C[C@](C)(O)CC[C@]4(C)[C@H]3CC[C@]12C [ganaxolone, 3α-hydroxy-3β-methyl-5α-pregnan-20-one] , please.
199

Every entry's value here was drawn from patent US11266662B2.
